# key: entry, value: CC50 at 24 h
Test: Cytotoxicity assay (LDH release), hRPTEC
Type: cell-based, human
Conditions: human
Bridge positions count the residues as written; N and C are the ends. Square brackets hold non-standard residues; d marks the D form. Peptide text beside a SMILES is read from it. * marks the point of attachment. X13 = N#Cc1ccc(-c2cc(C(=O)*)ccc2F)cc1; X9 = N#Cc1ccc(-c2cc(C(=O)*)ccc2F)nc1; X32 = N#Cc1cc(C(=O)*)ccc1-c1ccccc1; X35 = N#Cc1ccc(C(=O)*)cc1-c1ccccc1; X1 = CC[C@H](C)CCCCC(=O)*; Dab = NCC[C@H](N)C(=O)O; Dap = NC[C@H](N)C(=O)O

molecule	CC50 at 24 h
CC[C@H](C)CCCCC(=O)N[C@@H](CCN)C(=O)N[C@H](C(=O)N[C@@H](CN)C(=O)N[C@H]1CCNC(=O)[C@H]([C@@H](C)O)NC(=O)[C@H](CCN)NC(=O)[C@H](CCN)NC(=O)[C@H](CC(C)C)NC(=O)[C@@H](Cc2ccccc2)NC(=O)[C@H](CCN)NC1=O)[C@@H](C)O [Example 43] (X1-[Dab]T[Dap][Dab][Dab][dF]L[Dab][Dab]T; lactam 4-C)	72 µM

(Q) Look at this molecule and give its reported CC50 at 24 h. CC(C)C[C@@H]1NC(=O)[C@@H](Cc2ccccc2)NC(=O)[C@H](CCN)NC(=O)[C@@H](NC(=O)[C@H](CN)NC(=O)[C@@H](NC(=O)[C@H](CCN)NC(=O)c2ccc(-c3ccccc3)c(C#N)c2)[C@@H](C)O)CCNC(=O)[C@H]([C@@H](C)O)NC(=O)[C@H](CCN)NC(=O)[C@H](CCN)NC1=O [Example 8] (X32-[Dab]T[Dap][Dab][Dab][dF]L[Dab][Dab]T; lactam 4-C)
(A) 32 µM

(Q) What value of measured CC50 at 24 h is listed for CC(C)C[C@@H]1NC(=O)[C@@H](Cc2ccccc2)NC(=O)[C@H](CCN)NC(=O)[C@@H](NC(=O)[C@H](CN)NC(=O)[C@@H](NC(=O)[C@H](CCN)NC(=O)c2ccc(F)c(-c3ccc(C#N)cc3)c2)[C@@H](C)O)CCNC(=O)[C@H]([C@@H](C)O)NC(=O)[C@H](CCN)NC(=O)[C@H](CCN)NC1=O [Example 33] (X13-[Dab]T[Dap][Dab][Dab][dF]L[Dab][Dab]T; lactam 4-C) ?
(A) 30 µM

(Q) CC50 at 24 h for CC(C)C[C@@H]1NC(=O)[C@@H](Cc2ccccc2)NC(=O)[C@H](CCN)NC(=O)[C@@H](NC(=O)[C@H](CN)NC(=O)[C@@H](NC(=O)[C@H](CCN)NC(=O)c2ccc(F)c(-c3ccc(C#N)cn3)c2)[C@@H](C)O)CCNC(=O)[C@H]([C@@H](C)O)NC(=O)[C@H](CCN)NC(=O)[C@H](CCN)NC1=O [Example 24] (X9-[Dab]T[Dap][Dab][Dab][dF]L[Dab][Dab]T; lactam 4-C) ?
(A) > 100 µM

(Q) State the recorded CC50 at 24 h for this entry: CC(C)C[C@@H]1NC(=O)[C@@H](Cc2ccccc2)NC(=O)[C@H](CCN)NC(=O)[C@@H](NC(=O)[C@H](CN)NC(=O)[C@@H](NC(=O)[C@H](CCN)NC(=O)c2ccc(C#N)c(-c3ccccc3)c2)[C@@H](C)O)CCNC(=O)[C@H]([C@@H](C)O)NC(=O)[C@H](CCN)NC(=O)[C@H](CCN)NC1=O [Example 2] (X35-[Dab]T[Dap][Dab][Dab][dF]L[Dab][Dab]T; lactam 4-C)
(A) 39 µM
